The reported numbers originate from patent US12325697B2.

Assign IC50 to each entry below.
# EXPERIMENTAL TARGET: Recombinant human Cbl-b (aa 36-427) (Homo sapiens (Human))
# Sequence (Q13191 36-427): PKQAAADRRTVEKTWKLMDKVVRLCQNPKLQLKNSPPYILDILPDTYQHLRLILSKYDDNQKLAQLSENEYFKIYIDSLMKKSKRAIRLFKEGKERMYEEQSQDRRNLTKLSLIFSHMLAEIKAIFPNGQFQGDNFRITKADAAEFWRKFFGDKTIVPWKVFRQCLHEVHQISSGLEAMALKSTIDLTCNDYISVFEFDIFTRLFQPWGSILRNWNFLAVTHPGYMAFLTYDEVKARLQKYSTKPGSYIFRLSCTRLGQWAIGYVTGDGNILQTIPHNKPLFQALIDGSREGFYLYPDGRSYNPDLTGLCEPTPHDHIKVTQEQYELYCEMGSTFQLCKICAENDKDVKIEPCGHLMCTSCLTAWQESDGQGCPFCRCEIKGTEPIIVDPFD
# TEST DESCRIPTION: Cbl-b Biochemical Assay (TR-FRET)
# ASSAY CONTEXT: read-out: TR-FRET hCbl-b IC50

Quickly give me recorded IC50 for Cn1cnnc1-c1cc(C#N)ccc1-c1cc(C2CC2)nc(N2Cc3ccc(CNC(C)(C)C4CCC4)cc3C2=O)c1 [AOM-2]
≤ 200 nM

Quickly give me recorded IC50 for Cn1cnnc1-c1cc(C#N)ccc1-c1cc(C2CC2)nc(N2Cc3ccc(CN4CC(F)C4)cc3C2=O)c1 [ALJ-1]
≤ 200 nM

Quickly give me recorded IC50 for CC(C)Nc1cc(-c2c(-c3nncn3C)cnn2C)cc(N2Cc3c(cccc3C(F)(F)F)C2=O)n1 [ABI-1]
≤ 200 nM

Quickly give me recorded IC50 for Cn1cnnc1-c1cc(C#N)ccc1-c1cc(C2CC2)nc(N2Cc3ccc(CNCC(C)(C)O)cc3C2=O)c1 [AIE-1]
≤ 200 nM

Quickly give me recorded IC50 for Cn1cnnc1-c1cc(F)ccc1-c1cc(C2CC2)nc(N2Cc3cc(Cl)c(CN[C@@H]4CCC[C@@H]4O)cc3C2=O)c1 [ANR-2]
≤ 200 nM

Quickly give me recorded IC50 for Cn1cnnc1-c1ccc(C#N)cc1-c1cccc(N2Cc3c(cc(CO)cc3C(F)(F)F)C2=O)c1 [ADM-6]
200 to 1000 nM

Quickly give me recorded IC50 for Cn1cnnc1-c1cnn(C)c1-c1cccc(NC(=O)c2cc(=O)n(C)c(C3CC3)n2)c1 [AAE-6]
10000 to 50000 nM

Quickly give me recorded IC50 for CCNc1cc(-c2c(-c3nncn3C)cnn2C)cc(CNC(=O)OC(C)(C)C)n1 [ABV-1]
10000 to 50000 nM

Quickly give me recorded IC50 for Cn1cnnc1-c1cc(C#N)ccc1-c1cc(N2Cc3c(F)cc(CO)cc3C2=O)nc(C(F)(F)F)c1 [ALM-3]
≤ 200 nM

Quickly give me recorded IC50 for Cn1cnnc1-c1cc(C#N)ccc1-c1cc(C2CC2)nc(N2Cc3ccc(CNC4COC4)cc3C2=O)c1 [AMV-2]
≤ 200 nM

Quickly give me recorded IC50 for C[C@@H]1CCCN(Cc2cc3c(c(C(F)(F)F)c2)CN(c2cccc(-c4ccccc4-c4nncn4C)c2)C3=O)C1 [Example S-2]
200 to 1000 nM

Quickly give me recorded IC50 for CCNc1cc(-c2c(-c3nncn3C)cnn2C)cc(N2Cc3c(cc(CN4CC[C@H](F)C4)cc3C(F)(F)F)C2=O)n1 [ACB-1]
≤ 200 nM

Quickly give me recorded IC50 for Cn1cnnc1-c1ccccc1-c1cc(N2Cc3c(cccc3C(F)(F)F)C2=O)nc2[nH]ccc12 [Example L-5]
10000 to 50000 nM

Quickly give me recorded IC50 for COC(=O)c1cc(-c2ccccc2-c2nncn2C)cc(N2Cc3c(cccc3C(F)(F)F)C2=O)c1 [Example H-5]
10000 to 50000 nM

Quickly give me recorded IC50 for CN(Cc1ccc2c(c1)C(=O)N(c1cc(-c3ccc(C#N)cc3-c3nncn3C)cc(C3CC3)n1)C2)C1CCC1 [AOA-1]
≤ 200 nM

Quickly give me recorded IC50 for CCNc1cc(-c2c(-c3nncn3C)cnn2C)cc(N2Cc3c(cc(CN[C@@H]4CCC[C@@H]4O)cc3C(F)(F)F)C2=O)n1 [ADF-2]
≤ 200 nM

Quickly give me recorded IC50 for Cn1cnnc1-c1ccccc1-c1cccc(N2Cc3c(cc(Br)cc3C(F)(F)F)C2=O)c1 [AY-1]
200 to 1000 nM

Quickly give me recorded IC50 for CO[C@@H](C)CNCc1cc(F)c2c(c1)C(=O)N(c1cc(-c3ccc(C#N)cc3-c3nncn3C)cc(C3CC3)n1)C2 [AKW-1]
≤ 200 nM

Quickly give me recorded IC50 for Cn1cnnc1-c1cc(C#N)ccc1-c1cc(C2CC2)nc(N2Cc3c(F)cc(CN4CCC[C@](C)(O)C4)cc3C2=O)c1 [AMR-2]
≤ 200 nM

Quickly give me recorded IC50 for C[C@@H]1CN(Cc2cc3c(c(C(F)(F)F)c2)CN(c2cccc(-c4ccccc4-c4nncn4C)c2)C3=O)CCO1 [Example X-2]
≤ 200 nM

Quickly give me recorded IC50 for CCNc1cc(-c2ccc(C#N)cc2-c2nncn2C)cc(N2Cc3c(cccc3C(F)(F)F)C2=O)n1 [ADP-8]
≤ 200 nM

Quickly give me recorded IC50 for Cn1cnnc1-c1ccccc1-c1cc(N2Cc3c(cc(CO)cc3C(F)(F)F)C2=O)nc(N2Cc3c(cc(CO)cc3C(F)(F)F)C2=O)c1 [ACX-2]
10000 to 50000 nM

Quickly give me recorded IC50 for Cn1cnnc1-c1ccccc1-c1cccc(N2Cc3c(cc(CN4CCC5(CC5)C4)cc3C(F)(F)F)C2=O)c1 [AAQ-1]
≤ 200 nM

Quickly give me recorded IC50 for Cc1conc1-c1ccccc1-c1cccc(N2Cc3c(cccc3C(F)(F)F)C2=O)c1 [AAZ-7]
1000 to 10000 nM

Quickly give me recorded IC50 for Cn1cnnc1-c1cc(F)ccc1-c1cc(C2CC2)nc(N2Cc3c(cc(CNCC4(O)CCC4)cc3C(F)(F)F)C2=O)c1 [AEY-1]
≤ 200 nM

Quickly give me recorded IC50 for CCNc1cc(-c2ccc(C#N)cc2-c2nncn2C)cc(N2Cc3c(cc(NC)cc3C(F)(F)F)C2=O)n1 [AFA-2]
≤ 200 nM

Quickly give me recorded IC50 for Cn1cnnc1-c1cc(C#N)ccc1-c1cc(C2CC2)nc(N2Cc3c(cc(COCCO)cc3C(F)(F)F)C2=O)c1 [AHF-4]
≤ 200 nM

Quickly give me recorded IC50 for COCC1(NCc2ccc3c(c2)C(=O)N(c2cc(-c4ccc(C#N)cc4-c4nncn4C)cc(C4CC4)n2)C3)CC1 [ALT-2]
≤ 200 nM

Quickly give me recorded IC50 for Cn1cnnc1-c1cc(C#N)ccc1-c1cc(C2CC2)nc(N2Cc3c(F)cc(CN4CC5CC5C4)cc3C2=O)c1 (stereo not drawn) [AKQ-2]
≤ 200 nM

Quickly give me recorded IC50 for CCNc1cc(-c2c(-c3nncn3C)cnn2C)cc(N2Cc3c(cc(CNCC4(O)CCC4)cc3C(F)(F)F)C2=O)n1 [ADJ-1]
≤ 200 nM
